molecular target: TYK2 (h) (Homo sapiens)
Sequence (P29597 whole entry): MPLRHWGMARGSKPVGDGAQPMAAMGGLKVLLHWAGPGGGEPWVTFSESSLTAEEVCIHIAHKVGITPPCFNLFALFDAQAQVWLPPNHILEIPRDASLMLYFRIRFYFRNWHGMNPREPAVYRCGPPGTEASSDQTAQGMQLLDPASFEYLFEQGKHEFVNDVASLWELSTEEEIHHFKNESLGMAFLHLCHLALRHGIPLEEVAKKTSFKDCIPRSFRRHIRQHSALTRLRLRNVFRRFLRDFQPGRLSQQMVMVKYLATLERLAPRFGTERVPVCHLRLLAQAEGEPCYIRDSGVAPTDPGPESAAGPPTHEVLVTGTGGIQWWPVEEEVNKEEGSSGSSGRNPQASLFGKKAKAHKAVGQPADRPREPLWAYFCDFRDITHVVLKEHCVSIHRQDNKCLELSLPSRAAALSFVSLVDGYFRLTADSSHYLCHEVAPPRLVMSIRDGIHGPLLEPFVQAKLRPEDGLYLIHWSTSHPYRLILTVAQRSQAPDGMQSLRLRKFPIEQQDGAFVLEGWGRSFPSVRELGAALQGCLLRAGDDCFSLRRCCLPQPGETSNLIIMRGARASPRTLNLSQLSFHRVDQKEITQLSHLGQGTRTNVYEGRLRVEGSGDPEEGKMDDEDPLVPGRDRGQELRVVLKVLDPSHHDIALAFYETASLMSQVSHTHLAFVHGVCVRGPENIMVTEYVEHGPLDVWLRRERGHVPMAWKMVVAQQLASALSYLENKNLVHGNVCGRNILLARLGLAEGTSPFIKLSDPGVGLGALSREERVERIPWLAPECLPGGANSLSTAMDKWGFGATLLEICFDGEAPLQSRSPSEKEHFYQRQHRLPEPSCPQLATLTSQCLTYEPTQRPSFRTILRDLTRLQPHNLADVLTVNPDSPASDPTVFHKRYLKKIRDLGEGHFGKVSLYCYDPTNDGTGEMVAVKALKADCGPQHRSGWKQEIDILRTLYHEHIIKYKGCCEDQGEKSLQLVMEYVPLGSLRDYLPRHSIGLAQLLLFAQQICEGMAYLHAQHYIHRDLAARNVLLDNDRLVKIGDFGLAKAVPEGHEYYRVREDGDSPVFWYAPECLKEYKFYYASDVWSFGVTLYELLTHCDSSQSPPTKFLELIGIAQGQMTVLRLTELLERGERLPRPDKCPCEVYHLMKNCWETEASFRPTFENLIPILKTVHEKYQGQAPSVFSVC
Each record here notes measured pIC50.
pIC50 is a log-scale quantity: -log10 of the concentration expressed in molar.

Short answer for CC(C)(O)Cc1nc2cc(Nc3ncc(Cl)c(NC4CCN(c5ccc(C#N)nn5)CC4)n3)ccn2n1 [Example 77] : pIC50 was 8.05

Short answer for N#Cc1ccc(N2CCC(Nc3nc(Nc4ccn5c(C(F)F)nnc5c4)ncc3Cl)CC2)nc1 [Example 30] : pIC50 was 8.40

Short answer for CC(C)(O)Cc1nc2ccc(Nc3ncc(Cl)c(NC4CCN(c5ccc(C#N)cn5)CC4)n3)cn2n1 [Example 67] : pIC50 was 8.10

====

assay: Compound stability in rat liver microsomes; assay type: in vitro ADME; conditions: liver microsomes, pH 7.4; in vivo CLint extrapolated from rat liver microsome incubation
Measured Property: CLint scaled at 5 μM (L/h/kg)
Respond with the bare value in L/h/kg.

{"Compound": "CCC1CN(c2ccc(C#N)cn2)CCC1Nc1nc(Nc2ccn3c(C)nnc3c2)ncc1Cl (centres unmarked)", "Uom": "L/h/kg", "CLint scaled at 5 μM": 18.1}

Short answer for `CC(C)(O)c1cn2ccc(Nc3ncc(Cl)c(NC4CCN(c5ccc(C#N)nn5)CC4)n3)cc2n1` : CLint scaled at 5 μM was 26.3

Short answer for `CC(C)(O)c1cnc2cc(Nc3ncc(Cl)c(NC4CCN(c5ccc(C#N)nn5)CC4)n3)ccn12` : CLint scaled at 5 μM was 4.11

Short answer for `Cn1cnc2cc(Nc3ncc(Cl)c(NC4CCN(c5ccc(C#N)cn5)CC4)n3)ccc21` : CLint scaled at 5 μM was 1.95

Short answer for `CN(C)C(=O)c1nc2cc(Nc3ncc(Cl)c(NC4CCN(c5ccc(C#N)cn5)CC4)n3)ccn2n1` : CLint scaled at 5 μM was 11.6

Short answer for `CC(C)(O)c1nc2cc(Nc3ncc(Cl)c(NC4CCN(c5ccc(C#N)nn5)CC4)n3)ccn2n1` : CLint scaled at 5 μM was 0.438

Short answer for `CC(C)(O)Cc1cn2cc(Nc3ncc(Cl)c(NC4CCN(c5ccc(C#N)cn5)CC4)n3)ccc2n1` : CLint scaled at 5 μM was 12.8

Short answer for CC(O)Cn1cnc2cc(Nc3ncc(Cl)c(NC4CCN(c5ccc(C#N)cn5)CC4)n3)ccc21 (centres unmarked) : CLint scaled at 5 μM was 5.17
